Tested on: pigweed (Amaranthus retroflexus)
Experiment: Test A postemergence
Assay type: in vivo
Details: Amaranthus retroflexus, post-emergence, 240 h, 125 g ai/ha, postemergence, visual injury vs untreated controls after approx. 10 d; 0 = no effect, 100 = complete control; read-out: Pigweed plant response rating (0 to 100 scale)
MEASUREMENT LABEL: pest or weed control at 125 g/ha
Please make sure the unit comes right after the number.

Consider the following illustrative entries.
MOLECULE: O=C1NC[C@H](c2csc3c2CCC3)[C@H]1C(=O)Nc1cccc(F)c1F
ASSAYED SYSTEM: pigweed (Amaranthus retroflexus)
pest or weed control at 125 g/ha: 0%
--
MOLECULE: CON1CC[C@H](c2cccc(C(F)(F)F)c2)[C@@H](C(=O)Nc2cccc(F)c2F)C1=O
ASSAYED SYSTEM: pigweed (Amaranthus retroflexus)
pest or weed control at 125 g/ha: 0%
--
MOLECULE: CN1CC[C@H](c2ccc(C(F)(F)F)cc2)[C@@H](C(=O)Nc2cccc(Cl)c2F)C1=O
ASSAYED SYSTEM: pigweed (Amaranthus retroflexus)
pest or weed control at 125 g/ha: 20%

### Prompt Name the recorded pest or weed control at 125 g/ha for CN1C[C@H](c2ccc(C(F)(F)F)cc2)[C@](F)(C(=O)Nc2cccc(F)c2F)C1=O (racemic) .
### Response 0%

###

Listed here: items and their measured pest or weed control at 62.5 g/ha.
Test system: giant foxtail (Setaria faberi)
Experiment: Test G Post-Emergence Protocol
Format: in vivo
Details: Setaria faberi, post-emergence, 312 h, 62.5 g ai/ha, evaluated after 13 days, 100=total damage to plant, 0=no damage to plant, read-out: Foxtail, Giant damage rating
Give just the number in %; leave the unit off.

Consider the following illustrative entries.
COMPOUND: CCCOc1cc(C2CN(C)C(=O)C2C(=O)Nc2cccc(F)c2F)cc(C(F)(F)F)c1 (stereo not shown)
ASSAYED SYSTEM: giant foxtail (Setaria faberi)
REPORTED RESULT: 70
//
COMPOUND: CN1C[C@H](c2cccc(C(F)(F)F)c2)[C@@H](C(=O)Nc2cnccc2C#N)C1=O (racemic)
ASSAYED SYSTEM: giant foxtail (Setaria faberi)
REPORTED RESULT: 0
//
COMPOUND: CN1CC(c2ccc(C(F)(F)F)c(C(F)(F)F)c2)C(C(=O)Nc2cccc(F)c2F)C1=O (stereo not shown)
ASSAYED SYSTEM: giant foxtail (Setaria faberi)
REPORTED RESULT: 80

### Prompt Name the recorded pest or weed control at 62.5 g/ha for CN1C[C@H](c2ccc(C(F)(F)F)cc2)[C@@H](C(=O)Nc2cccc(F)[n+]2[O-])C1=O (racemic) .
### Response 0

### Prompt Name the recorded pest or weed control at 62.5 g/ha for CSc1ccncc1NC(=O)[C@H]1C(=O)N(C)C[C@@H]1c1ccc(C(F)(F)F)cc1 (racemic) .
### Response 0

### Prompt Name the recorded pest or weed control at 62.5 g/ha for CN1C[C@H](c2cccc(C(F)(F)F)c2)[C@@H](C(=O)Nc2cccc(O)c2F)C1=O (racemic) .
### Response 60

### Prompt Name the recorded pest or weed control at 62.5 g/ha for CCCOc1cc(OC(F)(F)F)cc(C2CN(C)C(=O)C2C(=O)Nc2cccc(F)c2F)c1 (stereo not shown) .
### Response 60
